Give measured IC50 shift at 0.5 h for each item. Keep answers brief.
Target: UniProt P05177
Sequence (P05177 whole entry): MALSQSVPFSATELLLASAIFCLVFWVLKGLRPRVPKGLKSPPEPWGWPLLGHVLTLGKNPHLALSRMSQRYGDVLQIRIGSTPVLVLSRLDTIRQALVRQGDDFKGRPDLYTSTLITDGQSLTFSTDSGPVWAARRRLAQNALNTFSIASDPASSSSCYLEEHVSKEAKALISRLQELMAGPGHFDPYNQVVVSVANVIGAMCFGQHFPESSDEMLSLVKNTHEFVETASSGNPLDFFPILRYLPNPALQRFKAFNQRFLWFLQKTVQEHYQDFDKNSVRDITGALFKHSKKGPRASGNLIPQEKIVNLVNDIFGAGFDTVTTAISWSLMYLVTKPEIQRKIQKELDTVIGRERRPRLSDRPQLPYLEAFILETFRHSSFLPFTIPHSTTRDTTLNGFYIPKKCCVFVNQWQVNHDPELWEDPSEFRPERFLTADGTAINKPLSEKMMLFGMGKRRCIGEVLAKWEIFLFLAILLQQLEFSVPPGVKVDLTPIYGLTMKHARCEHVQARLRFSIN
Assay: Inhibition of human CYP1A2 assessed as ratio of IC50 in absence of NADPH to IC50 for presence of NADPH using ethoxyresorufin as substrate after 30 mins
Numbers only.

NNCCc1ccccc1 [PHENELZINE] : 2
CC/C(=C(/CC)c1ccc(O)cc1)c1ccc(O)cc1 [DIETHYLSTILBESTROL] : 2

Next compound, please.
Record summary for Clc1ccccc1C(c1ccccc1)(c1ccccc1)n1ccnc1 [CLOTRIMAZOLE] : reported IC50 shift at 0.5 h = 2
